# System: DMS-114
# EXPERIMENTAL PROTOCOL: NCI tumour cell line growth inhibition, 48 h
The source made the active and inactive calls. Cut-off read from the data, not from the text of the source: active = GI50 up to about 1.1 µM and inactive = higher.
Entries and their GI50

MOLECULE: COc1cc(O)c2c(c1)C(=O)c1cc(C)cc(O)c1C2=O
ASSAYED TARGET: DMS-114
QUANTITY: GI50
MEASURED RESULT: > 100 µM (inactive)

GI50 value, target or system DMS-114, for "N#C/C(=C\c1ccccc1Br)C(=O)c1ccccc1" : 97.1 µM (inactive)

GI50 value, target or system DMS-114, for O=C1c2ccccc2N2OC3(N4CCOCC4)CCCC3C12c1ccccc1 (stereo unspecified) : > 100 µM (inactive)

GI50 value, target or system DMS-114, for "N#Cc1cc([N+](=O)[O-])ccc1NC(=O)C(F)(F)F" : > 40.8 µM (inactive)

GI50 value, target or system DMS-114, for O=C(Nc1cccc(O)c1)C(=O)C(C(=O)c1ccccc1F)C1OC(=O)c2ccccc21 (stereo unspecified) : 13.8 µM (inactive)

GI50 value, target or system DMS-114, for "CC1=NN(C(=O)Cc2ccccc2)C(=O)/C1=C\c1ccccc1O" : > 100 µM (inactive)
